B1: library; numbered along this chain (parent)
chain: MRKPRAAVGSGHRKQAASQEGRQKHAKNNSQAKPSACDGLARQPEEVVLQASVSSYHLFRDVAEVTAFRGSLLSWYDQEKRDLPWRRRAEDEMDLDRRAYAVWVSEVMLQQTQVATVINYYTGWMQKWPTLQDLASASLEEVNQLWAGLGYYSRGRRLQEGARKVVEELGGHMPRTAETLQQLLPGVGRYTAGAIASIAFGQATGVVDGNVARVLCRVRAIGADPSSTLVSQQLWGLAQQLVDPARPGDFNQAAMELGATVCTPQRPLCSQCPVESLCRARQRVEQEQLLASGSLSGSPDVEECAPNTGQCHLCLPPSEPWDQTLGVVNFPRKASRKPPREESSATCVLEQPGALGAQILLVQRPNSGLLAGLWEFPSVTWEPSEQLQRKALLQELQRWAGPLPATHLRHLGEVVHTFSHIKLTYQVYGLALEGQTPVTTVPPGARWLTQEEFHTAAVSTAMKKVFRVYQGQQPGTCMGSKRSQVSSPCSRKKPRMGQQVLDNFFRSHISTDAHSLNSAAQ

Variants of: B1
measurement_protocol: 8OG:A repair function score (normalized; synonymous = 0, nonsense = -1) (normalized log-likelihood score); higher = more repair activity (WT-like);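 also: cells sorted at 72 h after reporter transfection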
run_conditions: with 8OG:A DNA repair reporter (GFP) in HEK-293 MUTYH KO cells
8OG:A repair function score of -0.05 or higher: satisfied. Under -0.05: not satisfied.

Confirm if 8OG:A repair function score reported for the variant S298A is -0.05 or above. satisfied

# repeat for E168T satisfied

# repeat for L95W not satisfied

# repeat for T116H satisfied

# repeat for G368E not satisfied

# repeat for H410C not satisfied

# repeat for K337P satisfied

# repeat for P299S not satisfied

# repeat for N143M satisfied

# repeat for L184W not satisfied

# repeat for M462F not satisfied

# repeat for L516R satisfied

# repeat for P174E not satisfied

# repeat for V218W not satisfied

# repeat for S318V not satisfied

# repeat for S52G satisfied

# repeat for R336N not satisfied

# repeat for V327E not satisfied

# repeat for R332H not satisfied

# repeat for L501T satisfied

# repeat for S518H satisfied

# repeat for R2M not satisfied

# repeat for V284G not satisfied

# repeat for H514A satisfied

# repeat for I359V satisfied

# repeat for K80C satisfied

# repeat for F59K not satisfied

# repeat for V468P not satisfied

# repeat for K493A satisfied

# repeat for P402I not satisfied

# repeat for E433L satisfied

# repeat for R86T not satisfied

# repeat for K481H satisfied

# repeat for P320A satisfied

# repeat for V379F not satisfied

# repeat for V301N not satisfied

# repeat for T66H not satisfied

# repeat for A259D not satisfied
